# TARGET_OR_TEST_SYSTEM: T1, Rb^P Q444L (human, UniProt P06400 380-788, Q444L)
# T1 construct: also called variant 3
# T1 sequence (looked up): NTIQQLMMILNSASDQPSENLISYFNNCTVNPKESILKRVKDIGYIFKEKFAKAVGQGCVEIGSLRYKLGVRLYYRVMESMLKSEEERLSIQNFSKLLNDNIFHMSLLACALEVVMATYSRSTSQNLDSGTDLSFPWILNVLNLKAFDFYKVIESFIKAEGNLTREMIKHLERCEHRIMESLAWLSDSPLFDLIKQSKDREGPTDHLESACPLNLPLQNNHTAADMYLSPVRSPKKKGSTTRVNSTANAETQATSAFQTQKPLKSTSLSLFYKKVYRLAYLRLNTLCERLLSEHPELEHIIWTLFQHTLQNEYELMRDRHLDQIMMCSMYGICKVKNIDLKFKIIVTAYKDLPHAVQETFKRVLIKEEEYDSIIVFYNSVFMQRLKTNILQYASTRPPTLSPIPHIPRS
# MEASUREMENT_NOTES: fluorescence polarisation; 37 °C, after the 25 °C reading ramped over 7 min to 37 °C and 2 min incubation; unlabeled Rb^P against 1.5 nM TMR-E2F1^TD or 7.5 nM TMR-E7^LxCxE; 25 mM Tris pH 8.0, 200 mM NaCl, 1 mM DTT, 0.1% Tween-20; apparent Kd
# ASSAY_CONDITIONS: both partners purified
No end group written: not given here. TMR = tetramethyl rhodamine dye
Collected Kd values appear next to each entry.
Supply the numeric figure in nM, leaving out any unit text.

Kd measured on {TMR}-GEGIRDLFDCDFGDLTPLD (also called E2F^TD; source: synthetic peptide, bought: GenScript) [TMR-E2F1^TD, peptide of the E2F1 transactivation domain] = 30

Kd measured on DLYCYEQLN (also: TMR label, position not given here, source: synthetic peptide, bought: GenScript) [TMR-E7^LxCxE, LxCxE peptide of the E7 oncoprotein from HPV] = 11
